# PROTOCOL DETAILS: Salt screening of compound I with several acids (aspect of the salt)
# Format: physicochemical
# EXPERIMENTAL CONDITIONS: free base and acid in hot ethanol, cooled, solvent evaporated
QUANTITY: Aspect of the salt

| MOLECULE | Aspect of the salt |
| --- | --- |
| O=C(O)C=CC(=O)O.O=C(OC1CN2CCC1CC2)N(Cc1cc(F)c(F)c(F)c1)c1cccc(F)c1.O=C(OC1CN2CCC1CC2)N(Cc1cc(F)c(F)c(F)c1)c1cccc(F)c1 (stereo not drawn) [Fumaric (0.5 eq)] | White foam |
| O=C(O)CC(O)C(=O)O.O=C(OC1CN2CCC1CC2)N(Cc1cc(F)c(F)c(F)c1)c1cccc(F)c1 [L-Malic] | Oil |
| O=C(O)CC(O)C(=O)O.O=C(OC1CN2CCC1CC2)N(Cc1cc(F)c(F)c(F)c1)c1cccc(F)c1.O=C(OC1CN2CCC1CC2)N(Cc1cc(F)c(F)c(F)c1)c1cccc(F)c1 [D-Malic (0.5 eq)] | Hygroscopic red foam |
| CC1(C)C2CCC1(CS(=O)(=O)O)C(=O)C2.O=C(OC1CN2CCC1CC2)N(Cc1cc(F)c(F)c(F)c1)c1cccc(F)c1 [(S)-10-Camphorsulfonic] | Oil |
| O=C(OC1CN2CCC1CC2)N(Cc1cc(F)c(F)c(F)c1)c1cccc(F)c1.O=C1OC(C(O)CO)C(O)=C1O (stereo not drawn) [L(+)-Ascorbic] | White foam |
| CC=CC=CC(=O)O.O=C(OC1CN2CCC1CC2)N(Cc1cc(F)c(F)c(F)c1)c1cccc(F)c1 (stereo not drawn) [Sorbic] | Oil |
| CS(=O)(=O)O.O=C(OC1CN2CCC1CC2)N(Cc1cc(F)c(F)c(F)c1)c1cccc(F)c1 (stereo not drawn) [Methanesulphonic] | Oil |
| O=C(O)C=CC(=O)O.O=C(OC1CN2CCC1CC2)N(Cc1cc(F)c(F)c(F)c1)c1cccc(F)c1 (stereo not drawn) [Maleic] | Oil |

Request: Param item = O=C(O)CC(O)C(=O)O.O=C(OC1CN2CCC1CC2)N(Cc1cc(F)c(F)c(F)c1)c1cccc(F)c1.O=C(OC1CN2CCC1CC2)N(Cc1cc(F)c(F)c(F)c1)c1cccc(F)c1 (racemic) [DL-Malic (0.5 eq)] ; retrieve measured Aspect of the salt.
Result: Hygroscopic red foam

Request: Param item = O=C(O)C(O)c1ccccc1.O=C(OC1CN2CCC1CC2)N(Cc1cc(F)c(F)c(F)c1)c1cccc(F)c1 (stereo not drawn) [Mandelic] ; retrieve measured Aspect of the salt.
Result: White foam

Request: Param item = O=C(O)CC(O)C(=O)O.O=C(OC1CN2CCC1CC2)N(Cc1cc(F)c(F)c(F)c1)c1cccc(F)c1.O=C(OC1CN2CCC1CC2)N(Cc1cc(F)c(F)c(F)c1)c1cccc(F)c1 [L-Malic (0.5 eq)] ; retrieve measured Aspect of the salt.
Result: Oil
